Target Entity: S1P1 (Homo sapiens (Human), UniProt P21453)
Sequence (P21453 whole entry, species assumed): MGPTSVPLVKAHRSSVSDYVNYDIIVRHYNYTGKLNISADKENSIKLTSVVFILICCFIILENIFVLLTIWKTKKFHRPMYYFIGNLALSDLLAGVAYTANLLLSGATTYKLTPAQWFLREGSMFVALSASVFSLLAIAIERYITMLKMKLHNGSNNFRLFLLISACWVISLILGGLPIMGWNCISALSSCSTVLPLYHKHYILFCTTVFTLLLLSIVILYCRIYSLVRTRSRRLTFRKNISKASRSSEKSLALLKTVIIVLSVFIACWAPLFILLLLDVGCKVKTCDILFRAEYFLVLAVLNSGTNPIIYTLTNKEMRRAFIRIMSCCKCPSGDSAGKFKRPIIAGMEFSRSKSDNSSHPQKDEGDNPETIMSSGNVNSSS
Test Protocol: 35S-GTPγS binding, membranes from CHO cells expressing S1P1
Measurement Parameters: 60 min 30° C., read-out: S1P1 GTPgS EC50
Endpoint: EC50 (µM)

Past entries and their recorded results:
O=[N+]([O-])c1cc(-c2nc(-c3ccccc3OC(F)(F)F)no2)ccc1N1CCCCC1 ... 0.058
COc1ccc(F)cc1-c1noc(-c2cnc(N3CCCCC3C)c(C)c2)n1 (stereo not drawn) ... 0.005
O=[N+]([O-])c1cc(-c2nc(-c3ccccc3OC(F)(F)F)no2)ccc1N1CCOCC1 ... 0.135
CC1CCCCN1c1ccc(-c2nc(-c3ccccc3OC(F)(F)F)no2)cc1[N+](=O)[O-] (stereo not drawn) ... 0.018
O=[N+]([O-])c1cc(-c2nc(-c3ccccc3OC(F)(F)F)no2)ccc1N1CCCC(F)(F)C1 ... 0.08
COc1ccccc1-c1noc(-c2ccc(-c3cscc3C)c(OC)c2)n1 ... 0.005
COc1ccccc1-c1noc(-c2ccc(N3CCOCC3)c(N)c2)n1 ... 0.712
CS(=O)(=O)Nc1cc(-c2nc(-c3ccccc3OC(F)(F)F)no2)ccc1N1CCCC(F)(F)C1 ... 0.039
COc1ccc(F)cc1-c1noc(-c2ccc(N3CCCCC3C)nc2)n1 (stereo not drawn) ... 1.19
COc1ccccc1-c1noc(-c2ccc(N3CCCC(F)(F)C3)c([N+](=O)[O-])c2)n1 ... 0.036

a = Cc1ccccc1-c1ccc(-c2nc(-c3ccccc3OC(F)(F)F)no2)cc1C
b = Nc1cc(-c2nc(-c3ccccc3OC(F)(F)F)no2)ccc1N1CCCC(F)(F)C1
c = Cc1ccccc1-c1ccc(-c2nc(-c3ccccc3OC(F)(F)F)no2)cc1C(F)(F)F
Rank ascending by EC50. Response format: the labels, sorted as the prompt asks. c, a, b
(c: 0.002 µM, a: 0.004 µM, b: 0.116 µM)

* * *

Target Entity: S1P3 (Homo sapiens (Human), UniProt Q99500)
Sequence (Q99500 whole entry, species assumed): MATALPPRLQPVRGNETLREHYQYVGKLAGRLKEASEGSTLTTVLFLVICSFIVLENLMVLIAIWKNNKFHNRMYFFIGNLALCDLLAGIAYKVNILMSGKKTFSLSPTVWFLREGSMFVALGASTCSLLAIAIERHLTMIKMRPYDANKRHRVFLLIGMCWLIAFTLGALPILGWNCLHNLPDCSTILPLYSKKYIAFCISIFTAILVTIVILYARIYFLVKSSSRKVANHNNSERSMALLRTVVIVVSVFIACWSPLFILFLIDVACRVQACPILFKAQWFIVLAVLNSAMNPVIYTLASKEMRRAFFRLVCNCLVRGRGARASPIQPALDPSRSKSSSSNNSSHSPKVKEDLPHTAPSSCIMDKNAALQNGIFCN
Test Protocol: 35S-GTPγS binding, membranes from CHO cells expressing S1P3
Measurement Parameters: 60 min 30° C., read-out: S1P3 GTPgs EC50
pEC50: −log10 of the molar value.
Endpoint: pEC50

COc1ccc(F)cc1-c1noc(-c2ccc(-c3ccccc3C)c(CO)c2)n1 ... 5.25
COc1ccccc1-c1noc(-c2ccc(N3CCOCC3)c(C(F)(F)F)c2)n1 ... < 4.52

Using the record for COc1ccccc1-c1noc(-c2ccc(N3CCOCC3)c([N+](=O)[O-])c2)n1 , report its pEC50. < 4.52

* * *

Target Entity: S1P1 (Homo sapiens (Human), UniProt P21453)
Test Protocol: 35S-GTPγS binding, membranes from CHO cells expressing S1P1
Measurement Parameters: 60 min 30° C., read-out: S1P1 GTPgS EC50
Endpoint: EC50 (nM)

COc1ccccc1-c1noc(-c2ccc(N3CCCCC3)cc2)n1 ... 3600
CCOc1ccccc1-c1noc(-c2ccc(N3CCCCC3)c([N+](=O)[O-])c2)n1 ... 254

A = COCC1CCCN1c1ncc(-c2nc(-c3cc(F)ccc3OC)no2)cc1C (stereo not shown)
B = COc1ccccc1-c1noc(-c2ccc(N3C(C)CCC3C)c([N+](=O)[O-])c2)n1 (stereo not shown)
// pick min by EC50: A , B Lab log: write the label of the selected item as the result. A
(A: 522 nM, B: 1250 nM)

A = COc1ccc(F)cc1-c1noc(-c2ccc(-c3cccnc3C)c(C)c2)n1
B = COc1ccccc1-c1noc(-c2ccc(N3CCOCC3)c(C)c2)n1
C = COc1ccccc1-c1noc(-c2ccc(-c3ccccc3C)c(OC)c2)n1
D = COc1ccccc1-c1noc(-c2ccc(N3CCOCC3)c(C(F)(F)F)c2)n1
Rank ascending by EC50. Response format: the labels, sorted as the prompt asks. D, C, B, A

1 = COc1ccccc1-c1noc(-c2ccc(N3CCCCC3)c(C(F)(F)F)c2)n1
2 = COc1ccccc1-c1noc(-c2ccc(N3CCCC3)c([N+](=O)[O-])c2)n1
Field: entry with larger EC50 (options 1 / 2 ). Lab log: write the label of the selected item as the result. 2
(2: 132 nM, 1: 21 nM)

a = COc1ccccc1-c1noc(-c2ccc(-c3cscc3C)c(C)c2)n1
b = COc1ccc(F)cc1-c1noc(-c2ccc(N3CCCCC3)c(C(F)(F)F)c2)n1
// pick min by EC50: a , b Lab log: write the label of the selected item as the result. b
(b: 2 nM, a: 9 nM)

a = COc1ccccc1-c1noc(-c2ccc(N3CCCCC3)c(C)c2)n1
b = COc1ccccc1-c1noc(-c2ccc(-c3ccccc3C)c(C)c2)n1
// pick min by EC50: a , b Lab log: write the label of the selected item as the result. a

A = COc1ccc(F)cc1-c1noc(-c2ccc(N3CCCCC3C)c(NS(C)(=O)=O)c2)n1 (stereo not shown)
B = COc1cc(-c2nc(-c3ccccc3OC(F)(F)F)no2)ccc1-c1cscc1C
// pick min by EC50: A , B Lab log: write the label of the selected item as the result. A

a = COc1ccc(F)cc1-c1noc(-c2ccc(N3CCOCC3)c(C)c2)n1
b = COc1ccc(F)cc1-c1noc(-c2ccc(N3CCCCC3C)c([N+](=O)[O-])c2)n1 (stereo not shown)
// pick min by EC50: a , b Lab log: write the label of the selected item as the result. b
(b: 2 nM, a: 28 nM)

1 = COc1ccccc1-c1noc(-c2ccc(C3CCCCC3)cc2)n1
2 = O=[N+]([O-])c1cc(-c2nc(-c3ccccc3OC(F)(F)F)no2)ccc1N1CCCCCC1
// pick min by EC50: 1 , 2 Lab log: write the label of the selected item as the result. 1
(1: 66 nM, 2: 1130 nM)

* * *

Target Entity: S1P1 (Homo sapiens (Human))
Test Protocol: 35S-GTPγS binding, membranes from CHO cells expressing S1P1
Measurement Parameters: 60 min 30° C., read-out: S1P1 GTPgS EC50
Endpoint: EC50 (nM)

P = COc1ccc(F)cc1-c1noc(-c2ccc(N3CCCCC3)c(C)c2)n1 [Compound I68]
Q = COCCN(CCOC)c1ccc(-c2nc(-c3cc(F)ccc3OC)no2)cc1[N+](=O)[O-] [Compound I51]
Field: entry with larger EC50 (options P / Q ). Lab log: write the label of the selected item as the result. Q
(Q: 85 nM, P: 10 nM)

I = CC1CCC(C)N1c1ccc(-c2nc(-c3ccccc3OC(F)(F)F)no2)cc1[N+](=O)[O-] (centres unmarked) [Compound I38]
II = COc1ccc(F)cc1-c1noc(-c2ccc(N3CCCCC3C)c(C#N)c2)n1 (centres unmarked) [Compound I71]
III = CN(c1ccc(-c2nc(-c3ccccc3OC(F)(F)F)no2)cc1[N+](=O)[O-])C1CCCCC1 [Compound I5]
IV = FC(F)(F)Oc1ccccc1-c1noc(-c2ccc(N3CCOCC3)c(C(F)(F)F)c2)n1 [Compound I19]
Rank entries according to their EC50, from the largest number down. Response format: the labels, sorted as the prompt asks. I, III, IV, II
(I: 4470 nM, III: 589 nM, IV: 18 nM, II: 1 nM)

P = CC1CCCCN1c1ccc(-c2nc(-c3ccccc3OC(F)(F)F)no2)cc1C(F)(F)F (centres unmarked) [Compound I34]
Q = Cc1cc(-c2nc(-c3ccccc3OC(F)(F)F)no2)ccc1-c1cscc1C [Compound I44]
// pick min by EC50: P , Q Lab log: write the label of the selected item as the result. Q

* * *

Some compounds, each annotated with its measured EC50.
Target Entity: S1P3 (Homo sapiens (Human))
Test Protocol: 35S-GTPγS binding, membranes from CHO cells expressing S1P3
Measurement Parameters: 60 min 30° C., read-out: S1P3 GTPgs EC50

Past entries and their recorded results:
COc1ccc(F)cc1-c1noc(-c2ccc(N3CCCCC3C)c([N+](=O)[O-])c2)n1 (centres unmarked) [Compound I32] ... 1.7 µM
Cc1cc(-c2nc(-c3ccccc3OC(F)(F)F)no2)ccc1-c1ccccc1C(F)(F)F [Compound I23] ... > 30 µM
COc1ccc(F)cc1-c1noc(-c2ccc(-c3ccccc3C)c(CN(C)C)c2)n1 [Compound I78] ... 0.092 µM
Cc1ccccc1-c1ccc(-c2nc(-c3ccccc3OC(F)(F)F)no2)cc1C(F)(F)F [Compound I55] ... > 30 µM
COc1ccccc1-c1noc(-c2ccc(-c3ccccc3C)c([N+](=O)[O-])c2)n1 [Compound I26] ... 5.05 µM

Using the record for COc1ccc(F)cc1-c1noc(-c2ccc(N3CCCCC3C)c(NS(C)(=O)=O)c2)n1 (centres unmarked) [Compound I72] , report its EC50. > 20 µM

Using the record for CC1CCCCN1c1ccc(-c2nc(-c3ccccc3OC(F)(F)F)no2)cc1C(F)(F)F (centres unmarked) [Compound I34] , report its EC50. > 20 µM

Using the record for COc1ccccc1-c1noc(-c2ccc(N3CCCCC3)c([N+](=O)[O-])c2)n1 [Compound I1] , report its EC50. > 20 µM

Provenance of the data: patent US8889668B2
